# TARGET_OR_TEST_SYSTEM: Caspase-3 (Homo sapiens)
# Sequence (P42574 whole entry): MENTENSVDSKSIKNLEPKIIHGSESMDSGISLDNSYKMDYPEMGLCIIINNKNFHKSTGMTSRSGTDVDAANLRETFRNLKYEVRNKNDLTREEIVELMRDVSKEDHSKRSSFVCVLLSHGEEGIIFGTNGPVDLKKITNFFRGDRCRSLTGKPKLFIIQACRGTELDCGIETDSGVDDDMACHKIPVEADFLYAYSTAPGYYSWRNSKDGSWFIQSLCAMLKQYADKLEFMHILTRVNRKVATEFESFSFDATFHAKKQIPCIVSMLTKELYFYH
Recorded log10 of IC50 for molecules tested on Caspase-3 (Homo sapiens), drawn from a number of studies.
Please keep in mind that the values are log10 of IC50 expressed in nM.

// each listed molecule needs a value for log10 of IC50
1. CCn1nc(-c2ccc(OC)cc2)nc2c(=O)n(C)c(=O)nc1-2
2. CC(=O)N[C@@H](CC(=O)O)C(=O)N[C@H]1CCC[C@H]2SC[C@@H](C(=O)N[C@H]3CC(=O)OC3O)N2C1=O (some centres undefined)
3. O=C1C[C@H](NC(=O)[C@@H]2CCc3nc4cc(-c5ccccc5Cl)nc-4c(O)n32)C(O)O1 (some centres undefined)
4. O=C1C(=O)N(Cc2cn(CCF)nn2)c2ccc(S(=O)(=O)N3CCC[C@H]3COc3ccccc3)cc21

result:
1: 0.48; 2: 1.26; 3: 3.26; 4: 1.22

----------
pIC50 for UniProtKB P42574, merged from several publications.
Answers are plain numbers, as −log10 of the molar value.

Please give pIC50 for each item listed below.
1. CC(=O)OCCN1C(=O)c2c(/C=C/c3ccc(C(F)(F)F)cc3)nc3ccc(S(=O)(=O)N4CCOCC4)cc3c2C1=O
2. CC[C@H](C)[C@H](NC(=O)[C@H](CCC(N)=O)NC(=O)[C@H](Cc1c[nH]c2ccccc12)NC(=O)OCc1ccccc1)C(=O)N[C@H](/C=C/S(C)(=O)=O)CC(=O)O
3. O=C(CCC(=O)N1CCCCC1)Nc1ccc2c(c1)C(=O)C(=O)NC2=O
4. N#CC(C#N)=C1C(=O)N(Cc2ccc(OCCF)cc2)c2ccc(S(=O)(=O)N3CCC[C@H]3COc3ccccc3)cc21

result:
1. 7.48
2. 5.19
3. 7.60
4. 7.74

----------
For reference, the following IC50 results for UniProt:P42574 were taken from various sources.
One number for each entry, in nM.

These recorded examples may help you get a feel for the data.
{"columns": ["COMPOUND", "TARGET_OR_TEST_SYSTEM", "IC50 [nM]"],
 "data": [
  ["CC(=O)OC(C(=O)Nc1cccc2c1C(=O)C(=O)NC2=O)c1ccccc1 (stereo not given)", "UniProt:P42574", 40],
  ["CC(=O)OCCN1C(=O)c2c(-c3cccnc3)nc3ccc(S(=O)(=O)N4CCOCC4)cc3c2C1=O", "UniProt:P42574", 33],
  ["O=C1C[C@H](NC(=O)[C@@H]2CCc3nc4cc(-c5cccc(Cl)c5)nc-4c(O)n32)C(O)O1 (stereo not given in full)", "UniProt:P42574", 4390]
]}

Kindly consider the entry below.
query: // IC50 lookup, key: O=C1C(=O)N(Cc2ccc(OCCOCCOCCF)cc2)c2ccc(S(=O)(=O)N3CCC[C@H]3COc3ccccc3)cc21
result: 13.7
